Reference for the values: the RNAGym collection of RNA variant scans (doi:10.1073/pnas.2313332121)

B1: TPR t1 (parent)
chain: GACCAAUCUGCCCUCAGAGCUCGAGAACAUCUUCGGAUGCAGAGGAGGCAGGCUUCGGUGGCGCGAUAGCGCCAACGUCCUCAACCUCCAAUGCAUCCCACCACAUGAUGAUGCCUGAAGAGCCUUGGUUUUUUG

variants of: B1; assay: polymerase ribozyme fitness, log enrichment relative to wild type (log ratio); higher = more active; in vitro selection for triplet polymerase activity
Rule: polymerase ribozyme fitness (log ratio) of -3 or more gives MET; anything lower gives NOT MET.

- variant_spec: "U21G C56U"
  class_assignment: "MET"
- variant_spec: "C13A U81A C88U G110A A121C"
  class_assignment: "MET"
- variant_spec: "C20A G71A U129G"
  class_assignment: "NOT MET"
- variant_spec: "G39A G48C A50U C94U C114G"
  class_assignment: "NOT MET"
- variant_spec: "G51A G71A"
  class_assignment: "NOT MET"
- variant_spec: "G35U C40U G61A C124U"
  class_assignment: "NOT MET"
- variant_spec: "U21C C22A C101G G110A"
  class_assignment: "NOT MET"
- variant_spec: "U112A G128U"
  class_assignment: "MET"
- variant_spec: "C20A C28G C70G A83U C99U G113U"
  class_assignment: "NOT MET"
- variant_spec: "C72U C104A G120A G122U U131A"
  class_assignment: "MET"
- variant_spec: "G48A G61A U130A"
  class_assignment: "MET"
- variant_spec: "C8G A103U"
  class_assignment: "NOT MET"
- variant_spec: "C22U C56G"
  class_assignment: "NOT MET"
- variant_spec: "U21C A27U G36C A111U"
  class_assignment: "NOT MET"
- variant_spec: "C49G A95U A111G"
  class_assignment: "MET"
- variant_spec: "U7G G45C G47A U59C"
  class_assignment: "MET"
- variant_spec: "G39A G71U A84U"
  class_assignment: "MET"
- variant_spec: "C13U C28G A43G G110C"
  class_assignment: "MET"
- variant_spec: "C8G G25A A26G C73U G128A"
  class_assignment: "NOT MET"
- variant_spec: "C15G G63C U96C G117C U130G"
  class_assignment: "MET"
- variant_spec: "G61C A90U G93A"
  class_assignment: "NOT MET"
- variant_spec: "U7G G47U G113C"
  class_assignment: "MET"
- variant_spec: "C8G C72G C82A C102U"
  class_assignment: "MET"
- variant_spec: "C12U G63U C85G C88A"
  class_assignment: "NOT MET"
- variant_spec: "C15U A24G A41G C73A C115U"
  class_assignment: "MET"
- variant_spec: "C8G C12A G39A G61U A111U U130A"
  class_assignment: "MET"
- variant_spec: "U14G C53A A84C"
  class_assignment: "MET"
- variant_spec: "U33A G52U U112A"
  class_assignment: "NOT MET"
- variant_spec: "C3A G44C C53U C123A"
  class_assignment: "MET"
- variant_spec: "C12U U32C U81A U112A"
  class_assignment: "MET"
- variant_spec: "G10U G36A C64G A83G C94G G110U"
  class_assignment: "NOT MET"
- variant_spec: "A84U A90U"
  class_assignment: "MET"
- variant_spec: "G10C G71A G113C"
  class_assignment: "NOT MET"
- variant_spec: "G45A U106A A111G"
  class_assignment: "MET"
- variant_spec: "G48C A74C"
  class_assignment: "MET"
- variant_spec: "C56G G63C C115A"
  class_assignment: "MET"
- variant_spec: "C53U C56U"
  class_assignment: "MET"
- variant_spec: "C79A A91C"
  class_assignment: "NOT MET"
- variant_spec: "G48U G52U G63C"
  class_assignment: "MET"
- variant_spec: "A41U C64U"
  class_assignment: "MET"
- variant_spec: "U21A G39U"
  class_assignment: "MET"
- variant_spec: "G61U U81A"
  class_assignment: "MET"
- variant_spec: "C56G A68G"
  class_assignment: "NOT MET"
- variant_spec: "A41U C72A"
  class_assignment: "MET"
